test: growth suppression of yeast trafficking mutant, preliminary HTS, modulators of trafficking downstream of Golgi apparatus project, 1536-format plate, OD 615 nm (AID 637); conditions: yeast transport mutant growth, absorbance 615 nm, 18 h; hits give high values; further: test concentration not given here
QUANTITY KIND: inhibition (%)
I only need the number, in %, no unit after it.

## Input Entry COc1cc2c(cc1NC(=O)COC(=O)Cn1cnc3ccccc31)oc1ccccc12 needs its inhibition filled in; supply it.
## Output -3.23

## Input Using the record for O=C(/C=C1\NC2(CCCC2)Cc2ccccc21)N1CCOCC1 , state its measured inhibition.
## Output -3.49

## Input Provide measured inhibition value, entry: COc1cccc(Oc2cn[nH]c2-c2ccc(O)cc2O)c1
## Output -5

## Input Read the entry FC(F)(F)c1cccc(N2CCN(Cc3cccnc3)CC2)c1 and write its reported inhibition.
## Output -1.61

More entries:
## Input Using known records, supply inhibition for Cc1ccc(Cn2c(NCCc3ccccc3)nc3c2c(=O)n(C)c(=O)n3C)cc1
## Output -2.7

## Input Entry O=C(CCN1CCc2ccccc2C1)Nc1ccc2c(c1)OCO2 needs its inhibition filled in; supply it.
## Output 0.81

## Input In one line, give reported inhibition of the entry COc1ccc(-n2c(=O)[nH]cc(C(=O)Nc3ccc(NC(C)=O)cc3)c2=O)cc1 .
## Output 0

## Input Give the value of inhibition reported for the following: CCC(C)(C)NC(=O)C(OC(=O)c1ccco1)c1ccccc1OC (configuration not stated)
## Output -5

## Input Supply reported inhibition belonging to this compound: CCOc1cc(C(=O)NCC2CCCO2)cc(OCC)c1OCC (configuration not stated)
## Output -5.33

## Input Report inhibition for O=C(NCc1nnc(SCC(=O)N2CCCCCC2)o1)c1ccco1
## Output -0.48

## Input Note inhibition for the compound shown: CN(C)CCN1C(=O)c2oc3ccc(Cl)cc3c(=O)c2C1c1cccc(Br)c1 (configuration not stated)
## Output -5.5

## Input Look up and state reported inhibition for COc1cccc(NS(=O)(=O)c2cc(C)sc2C)c1
## Output -6.67

## Input Please supply the value of reported inhibition for the item Nc1cc(CN2C(=O)c3ccccc3C2=O)cc(Cl)c1O
## Output -1.64

## Input Indicate the recorded inhibition value for this compound: CC(C)C(NC(=O)OCc1ccccc1)C(=O)OCC(=O)NCc1ccco1 (configuration not stated)
## Output -11.3

## Input Read the entry Nn1c(SCC(=O)NC2CCCCC2)nnc1C1CC1 and write its reported inhibition.
## Output 10.8

## Input Tell me inhibition reported for Cc1cccc(-n2c(Cc3cc(=O)[nH]c(=O)[nH]3)nnc2SCC(=O)NCc2ccco2)c1
## Output 4.19

## Input Provide measured inhibition value, entry: CCn1nnc(NC(=O)c2cc3ccccc3o2)n1
## Output -9

## Input // fetch inhibition given entry CCCCOCCCNC(=O)c1cccs1
## Output -3.17

## Input Please report inhibition for the following compound: CC(C)OC(=O)c1cc(=O)[nH]c2ccccc12
## Output -2.22

## Input Fill in reported inhibition for this entry: CCOC(=O)Nc1ccc(OC)cc1S(=O)(=O)N1CCCCC1
## Output -1.8

## Input Give reported inhibition value for CCOC(=O)C(NC(C)=O)(NS(=O)(=O)c1ccccc1)C(F)(F)F (configuration not stated)
## Output 1.59
